System tested: BUNV N (nucleocapsid) wild type (Bunyamwera virus, UniProt P16495 1-233)
Sequence (P16495 whole entry): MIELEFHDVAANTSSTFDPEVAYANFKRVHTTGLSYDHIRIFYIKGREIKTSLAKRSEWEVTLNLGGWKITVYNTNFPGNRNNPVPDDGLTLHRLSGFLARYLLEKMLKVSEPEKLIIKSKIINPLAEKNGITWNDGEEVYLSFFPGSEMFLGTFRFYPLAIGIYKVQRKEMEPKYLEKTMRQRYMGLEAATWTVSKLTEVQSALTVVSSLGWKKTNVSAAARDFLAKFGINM
Experimental details: fluorescence polarization
Measure name: Kd (nM)
Value expressed in nM; do not type the unit.

Query :: Endpoint output: Kd of AGUAGUGUACUCCACACUACAAACUUGCUAUUGUUGAAAAUCGCUGUG (ssRNA) [BUNV48AG] . Value?
Result :: 62.9

These entries and their values trace back to paper PMC3675483.
